Biological target: T1, SBDSco (SBD of ScoMcrA) (Streptomyces coelicolor, UniProt Q9L0M9 90-250)
T1 sequence: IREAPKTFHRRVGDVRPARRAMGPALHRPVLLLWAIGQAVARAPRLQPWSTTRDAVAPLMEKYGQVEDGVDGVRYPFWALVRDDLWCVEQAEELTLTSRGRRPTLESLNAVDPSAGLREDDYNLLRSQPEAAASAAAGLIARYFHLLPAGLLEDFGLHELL
Experiment: fluorescence polarization; FP: 20 mM Tris-HCl pH 8.0, 50 mM NaCl, 5% glycerol, 1 mM DTT, 5 nM probe, room temperature; EMSA: 20 mM Tris-HCl pH 8.0, 100 mM NaCl, 5% glycerol, room temperature, protein 4x DNA
Conditions: protein: recombinant; tags: N-terminal 6xHis (pET28a); label: 5'-FAM on one strand (FP); blunt
Observable: Kd (nM)
Give just the number in nM; leave the unit off.

Q: Fill in: Kd of PT-GATC-10 RP (hemi-PT) (dsDNA, RP phosphorothioate between G4 and A5 of strand 1) DNA 1: GATGATCCTA DNA 2: TAGGATCATC is ___
A: 1090

Next:
Q: Find the recorded Kd belonging to PT-GAAC-10 RP (hemi-PT) (dsDNA, RP phosphorothioate between G4 and A5 of strand 1) DNA 1: GGCGAACGTG DNA 2: CACGTTCGCC and report it.
A: 567
